Attribution: patent US20240158446A1

# TESTED_ON: GDP-bound KRAS wild-type protein (Homo sapiens)
# Sequence (P01116 whole entry): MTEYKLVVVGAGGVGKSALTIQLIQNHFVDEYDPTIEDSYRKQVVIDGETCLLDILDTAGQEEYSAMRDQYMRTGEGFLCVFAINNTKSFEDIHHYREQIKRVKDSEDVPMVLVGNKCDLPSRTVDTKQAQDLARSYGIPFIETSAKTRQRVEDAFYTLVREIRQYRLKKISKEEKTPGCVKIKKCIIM
# EXPERIMENTAL_DETAILS: Binding to KRAS by surface plasmon resonance (SPR), Single Cycle Kinetics
# CONDITION: SPR, Single Cycle Kinetics, GDP-bound KRAS wild-type protein; read-out: KRAS KD
*1 amine or outer side, *2 acyl side, *3 side chain or, on linkers, in order; H or OH if unused. Where a SMILES comes first, the peptide text is derived from it. Bridges are numbered along the chain shown (N, C = ends). [ ]: non-standard residue; d: D form. The star is where a group is joined. hPhe(3-Cl-4-CF3) = N[C@@H](CCc1ccc(C(F)(F)F)c(Cl)c1)C(=O)O; X6 = CCCN([C@@H](COCCC(C)C)C(=O)[*:2])[*:1]; NMeGly(cPent) = CN[C@H](C(=O)O)C1CCCC1; NMeD = CN[C@@H](CC(=O)O)C(=O)O; NMeL = CN[C@@H](CC(C)C)C(=O)O; Morpholide = C1CN(*)CCO1; Ac4c = NC1(C(=O)O)CCC1; Sar = CNCC(=O)O
Response field label: string, one of T (Kd strictly below 0.2 nM) or F.

{"MOLECULE": "CCO[C@@H]1C[C@H]2C(=O)NC3(CCC3)C(=O)N(C)[C@@H](C3CCCC3)C(=O)N(C)[C@H](C(=O)N(C)C)CC(=O)N(C)[C@@H](CC)C(=O)N[C@@H]([C@@H](C)CC)C(=O)N3CCSC[C@H]3C(=O)N(C)[C@H]3C/C=C\\CCN(C3=O)[C@@H](Cc3ccc(C(F)(F)F)cc3)C(=O)N(C)CC(=O)N[C@@H](CCc3cc(F)c(C(F)(F)F)c(F)c3)C(=O)N2C1", "ASSIGNED_LABEL": "F"}
{"MOLECULE": "CCC[C@H]1C(=O)N[C@@H]([C@@H](C)CC)C(=O)N(C)CC(=O)N(C)[C@H]2C/C=C\\CCN(C2=O)[C@@H](Cc2ccc(C(F)(F)F)cc2)C(=O)N(C)CC(=O)N[C@@H](CCc2cc(F)c(Cl)c(F)c2)C(=O)N2C[C@H](OCC)C[C@H]2C(=O)NC2(CC(C)(C)C2)C(=O)N(C)[C@@H](C2CCCC2)C(=O)N(C)[C@H](C(=O)N(C)C)CC(=O)N1C", "ASSIGNED_LABEL": "T"}
{"MOLECULE": "CC[C@H](C)[C@@H]1NC(=O)[C@H](CC(F)(F)F)N(C)C(=O)C[C@@H](C(=O)N(C)C)N(C)C(=O)[C@H](C2CCCC2)N(C)C(=O)C2(CC(C)(C)C2)NC(=O)[C@@H]2CC(F)(F)CN2C(=O)[C@H](CCc2cc(F)c(C(F)(F)F)c(F)c2)NC(=O)CN(C)C(=O)[C@H](Cc2ccc(C(F)(F)F)cc2)N2CC/C=C\\C[C@@H](C2=O)N(C)C(=O)CN(C)C1=O", "ASSIGNED_LABEL": "T"}
{"MOLECULE": "CCO[C@@H]1C[C@H]2C(=O)NC3(CC(C)(C)C3)C(=O)N(C)[C@@H](C3CCCC3)C(=O)N(C)[C@H](C(=O)N(C)C)CC(=O)N(C)[C@@H](CC(C)C)C(=O)N[C@@H]([C@@H](C)CC)C(=O)N(C)CC(=O)N(C)[C@H]3C/C=C\\CCN(C3=O)[C@@H](Cc3ccc(C(F)(F)F)cc3)C(=O)N(C)CC(=O)N[C@@H](CCc3cc(F)c(Cl)c(F)c3)C(=O)N2C1", "ASSIGNED_LABEL": "T"}
{"MOLECULE": "CCCN(C)C(=O)[C@@H]1CC(=O)N(C)[C@@H](CC(F)F)C(=O)N[C@@H]([C@@H](C)CC)C(=O)N(C)CC(=O)N(C)[C@H]2C/C=C\\CCN(C2=O)[C@@H](Cc2ccc(C(F)(F)F)cc2)C(=O)N(C)CC(=O)N[C@@H](CCc2cc(F)c(C(F)(F)F)c(F)c2)C(=O)N2C[C@H](OCC)C[C@H]2C(=O)NC2(CCC2)C(=O)N(C)[C@@H](C2CCCC2)C(=O)N1C", "ASSIGNED_LABEL": "T"}
{"MOLECULE": "CCCN1C(=O)CN(C)C(=O)CN(C)C(=O)[C@H]([C@@H](C)CC)NC(=O)[C@H](CC(C)C)N(C)C(=O)C[C@@H](C(=O)N2CCOCC2)N(C)C(=O)[C@H](C2CCCC2)N(C)C(=O)C2(CCC2)NC(=O)[C@@H]2CCCN2C(=O)[C@H](CCc2ccc(C(F)(F)F)c(Cl)c2)NC(=O)CN(C)C(=O)[C@@H]1COCCC(C)C [PP1817] ([NMeL]I[Sar][Sar][X6][Sar][hPhe(3-Cl-4-CF3)]P[Ac4c][NMeGly(cPent)][NMeD]-Morpholide; lactam N-11)", "ASSIGNED_LABEL": "F"}
